tgt: Zap-70 (Homo sapiens)
Construct: Kinases are expressed as either kinase domains or full length constructs; made in house
Sequence (P43403 whole entry, species assumed, the tested form may be a part): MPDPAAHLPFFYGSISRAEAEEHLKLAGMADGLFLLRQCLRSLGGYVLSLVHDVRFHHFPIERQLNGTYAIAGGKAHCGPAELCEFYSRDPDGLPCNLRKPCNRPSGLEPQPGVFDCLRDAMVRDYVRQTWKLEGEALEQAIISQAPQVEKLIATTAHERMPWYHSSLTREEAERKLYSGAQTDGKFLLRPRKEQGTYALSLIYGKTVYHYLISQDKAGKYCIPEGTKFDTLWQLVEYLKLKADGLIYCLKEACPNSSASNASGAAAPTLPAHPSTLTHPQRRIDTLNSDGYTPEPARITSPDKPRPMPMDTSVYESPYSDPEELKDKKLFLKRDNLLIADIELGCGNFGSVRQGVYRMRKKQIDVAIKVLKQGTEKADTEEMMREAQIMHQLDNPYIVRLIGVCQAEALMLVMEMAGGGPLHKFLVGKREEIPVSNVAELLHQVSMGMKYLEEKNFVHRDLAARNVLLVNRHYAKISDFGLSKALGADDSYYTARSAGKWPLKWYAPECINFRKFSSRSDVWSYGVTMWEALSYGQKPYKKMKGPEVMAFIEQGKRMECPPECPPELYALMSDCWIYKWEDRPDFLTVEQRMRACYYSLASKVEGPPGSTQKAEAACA
protocol.details: Kinase inhibition assay (33P transfer), Zap-70
Type: biochemical
condition.context: read-out: Zap-1
pIC50: −log10 of the molar value.
Would you kindly list pIC50 for each of these molecules?

Answered examples (5):
COc1cc(Nc2ncnc(Nc3ccc4nn(C)cc4c3)n2)cc(OC)c1OC [Compound 556] : < 4.96
COc1cc(Nc2ncnc(-n3c(NCc4nccs4)nc4ccccc43)n2)cc(OC)c1OC [Compound 549] : < 5.04
CN(c1cccc(Cl)c1)c1ncnc(Nc2ccc(C(F)(F)F)cc2)n1 [Compound 744] : < 4.93
C=CCNc1nc2ccccc2n1-c1ncnc(Nc2cc(OC)c(OC)c(OC)c2)n1 [Compound 574] : < 4.98
COc1cc(Nc2ncnc(Nc3cc(-c4ccc(C)cc4)n[nH]3)n2)cc(OC)c1OC [Compound 521] : < 4.98

Record pIC50 per entry; entries follow.
1. CC(C)(C)c1cc(Nc2ncnc(Nc3cccc(CC(=O)O)c3)n2)[nH]n1 [Compound 979]
2. COC(=O)c1ccc(-c2cc(Nc3ncnc(Nc4cccc(C(N)=O)c4)n3)[nH]n2)cc1 [Compound 990]
3. CCN(c1ccc(C)cc1)c1ncnc(Nc2cc(OC)c(OC)c(OC)c2)n1 [Compound 538]
4. COc1cc(Nc2ncnc(-n3c(NCc4ccc5c(c4)OCO5)nc4ccccc43)n2)cc(OC)c1OC [Compound 595]

< 4.91
< 4.98
< 4.94
< 5.07
